Every entry's value here was drawn from ChEMBL document CHEMBL3885881.

Some molecules, each annotated with its measured PHOSPHORUS.
Species: Rattus norvegicus
Experiment: DrugMatrix - Regimen: Daily Repeat
Format: toxicity, organism-based, Sprague-Dawley
Parameters: regimen Daily Repeat, gender Male, age 6-8 weeks
Details: in vivo, po, 10 mg/kg, 120 h, tissue Plasma, route oral GAVAGE, dose level Low, time 5 day, vehicle .5 % CMC
Use mg/dL as the unit, but write only the number.

[
  {
    "Molecule": "CNCCC(Oc1ccc(C(F)(F)F)cc1)c1ccccc1 (centres undefined) [FLUOXETINE]",
    "Assay endpoint": "PHOSPHORUS",
    "Endpoint unit": "mg/dL",
    "Observed value": 12.13
  }
]

The molecule listed as Fc1ccc(C(c2ccc(F)cc2)N2CCN(C/C=C/c3ccccc3)CC2)cc1 [FLUNARIZINE] has a reported PHOSPHORUS of 14.07

Item: O=C1CN=C(c2ccccc2Cl)c2cc([N+](=O)[O-])ccc2N1 [CLONAZEPAM] | PHOSPHORUS: 11.6

For O=C1C(CC[S+]([O-])c2ccccc2)C(=O)N(c2ccccc2)N1c1ccccc1 (centres undefined) [SULFINPYRAZONE] the molecule record lists PHOSPHORUS as 11.67

----------
Species on record: Rattus norvegicus
Test: DrugMatrix - Regimen: Daily Repeat
Assay type: toxicity, organism-based, Sprague-Dawley
Design: regimen Daily Repeat, gender Male, age 6-8 weeks
Conditions: in vivo, po, 0 mg/kg, 120 h, tissue Blood, route oral GAVAGE, dose level Control, time 5 day, vehicle 100 % WATER
Assay endpoint: HEMATOCRIT (%)
Write the answer as a number in %, unit excluded.

[
  {
    "Molecule": "C[C@]12C=CC(=O)C=C1CC[C@@H]1[C@@H]2[C@@H](O)C[C@@]2(C)[C@H]1CC[C@]2(O)C(=O)CO [PREDNISOLONE]",
    "Assay endpoint": "HEMATOCRIT",
    "Observed value": 35.55
  },
  {
    "Molecule": "Oc1cccc(O)c1O [PYROGALLOL]",
    "Assay endpoint": "HEMATOCRIT",
    "Observed value": 36.48
  },
  {
    "Molecule": "O.O.O.O.O.O.[Cl-].[Cl-].[Sr+2] [STRONTIUM CHLORIDE HEXAHYDRATE]",
    "Assay endpoint": "HEMATOCRIT",
    "Observed value": 36.35
  },
  {
    "Molecule": "Cc1ccc(NC(=O)c2ccc(CN3CCN(C)CC3)cc2)cc1Nc1nccc(-c2cccnc2)n1 [IMATINIB]",
    "Assay endpoint": "HEMATOCRIT",
    "Observed value": 36.35
  },
  {
    "Molecule": "CC(C)NCC(O)c1ccc(NS(C)(=O)=O)cc1 (centres undefined) [SOTALOL]",
    "Assay endpoint": "HEMATOCRIT",
    "Observed value": 35.72
  },
  {
    "Molecule": "CN(C)CCOC(c1ccccc1)c1ccccc1 [DIPHENHYDRAMINE]",
    "Assay endpoint": "HEMATOCRIT",
    "Observed value": 36.62
  },
  {
    "Molecule": "CS(=O)(=O)c1ccc([C@@H](O)[C@@H](CO)NC(=O)C(Cl)Cl)cc1 [THIAMPHENICOL]",
    "Assay endpoint": "HEMATOCRIT",
    "Observed value": 36.35
  },
  {
    "Molecule": "CC(C)(C)CC(C)(C)c1ccc(OCCOCC[N+](C)(C)Cc2ccccc2)cc1.[Cl-] [BENZETHONIUM CHLORIDE]",
    "Assay endpoint": "HEMATOCRIT",
    "Observed value": 36.62
  }
]

HEMATOCRIT measured on CCN(CC)CCNC(=O)c1cc(S(C)(=O)=O)ccc1OC [TIAPRIDE] = 36.35
